# Test system: human sperm cells
# assayComment: Ca^2+ fluorimetric assay: Ca^2+ signals ([Ca^2+]i) induced in human sperm cells
# Type: cell-based
# conditionContext: Homo sapiens, Sperm; bisphenol 10 μM; peak Ca^2+ signal divided by that of progesterone 5 μM in the same experiment; read-out: Mean relative peak Ca^2+ signal at 10 μM (in %) (n = 3)
Binary call on activation at 10 µM: rule met from 9% upward, rule not met beneath that.

Oc1ccc(Cc2ccc(O)cc2)cc1 : rule not met
CC(C)(c1ccc(O)cc1)c1ccc(O)cc1 : rule not met
O=S(=O)(c1ccc(O)cc1)c1ccc(O)cc1 : rule not met

In: hey, is activation at 10 µM for this one >= 9%? Cc1cc(C(C)(C)c2ccc(O)c(C)c2)ccc1O
Out: rule met

In: hey, is activation at 10 µM for this one >= 9%? CCC(C)(c1ccc(O)cc1)c1ccc(O)cc1
Out: rule met

In: hey, is activation at 10 µM for this one >= 9%? CC(C)c1cc(C(C)(C)c2ccc(O)c(C(C)C)c2)ccc1O
Out: rule met

====

# Test system: human sperm cells
# assayComment: Ca^2+ fluorimetric assay: Ca^2+ signals ([Ca^2+]i) induced in human sperm cells
# Assay type: cell-based
# conditionContext: 10 μM
measuredProperty: Induction of Ca^2+ signals in human sperm cells (in words)

Sample answers from the record:
CC(c1ccc(O)cc1)c1ccc(O)cc1 : induced no Ca^2+ signals
CC(C)c1cc(C(C)(C)c2ccc(O)c(C(C)C)c2)ccc1O : can induce Ca^2+ signals
Cc1cc(C(C)(C)c2ccc(O)c(C)c2)ccc1O : can induce Ca^2+ signals
Oc1ccc(Cc2ccc(O)cc2)cc1 : induced no Ca^2+ signals

Now look at this entry.
In: Dear colleague, please send me the reported Induction of Ca^2+ signals in human sperm cells (in words) for O=S(=O)(c1ccc(O)cc1)c1ccc(O)cc1 when you can.
Out: induced no Ca^2+ signals
